- experiment_description: protein stability index of a GFP-peptide fusion (yeast GPS) (PSI 1-4); higher = more stable; sorted into four equal gates, so the index is relative within each strain
- details: doa10∆
If the reported protein stability index equals or exceeds 3, assign met. If not, assign not met.

{"sequence_record": "NVDQTKTQCPNYDTCGG [RPC11]", "label_value": "met"}
{"sequence_record": "YKALRGMVSHKTARGKA [RPL16A]", "label_value": "not met"}

Problem: Does NINFASGVKNDILQSLS [CDC53] have a reported protein stability index of at least 3?
Result: not met

Problem: Does KKSKRLDKVGKKKGGKK [LRP1] have a reported protein stability index of at least 3?
Result: met

Problem: Does MSVKPIDNYITNSVRLF [SRP21] have a reported protein stability index of at least 3?
Result: not met

Problem: Does LPVMESLDSCTAAFTAM [YJR042W/NUP85] have a reported protein stability index of at least 3?
Result: not met

Problem: Does VRYEEKRELKQLLEKAP [BRR2] have a reported protein stability index of at least 3?
Result: not met

Problem: Does NAKIIDAEVAQFLEQGL [SRP68] have a reported protein stability index of at least 3?
Result: not met

Problem: Does SRGESDDSLNRLAQNDG [RPS21A] have a reported protein stability index of at least 3?
Result: not met

Problem: Does TRAQYLAFAKLVHSEYL [SRP68] have a reported protein stability index of at least 3?
Result: not met

* * *

- experiment_description: protein stability index of a GFP-peptide fusion (yeast GPS) (PSI 1-4); higher = more stable; sorted into four equal gates, so the index is relative within each strain
- details: ubr1∆
measurement_label: protein stability index
Reply with just the number.

Reference set (5 entries):
{"sequence_record": "RIGTIVHKERHDGGFDL [RPS4A]", "readout_value": 1.99}
{"sequence_record": "MTDIWNTLIPESSLTIS [ECM29]", "readout_value": 2.87}
{"sequence_record": "MESIGSDILTAEKMRGN [RRP4]", "readout_value": 3.34}
{"sequence_record": "KYHNDLIEKEIQPKITE [SMC1]", "readout_value": 3.07}
{"sequence_record": "ERTKQRTAKAYLKVSEE [PRP8]", "readout_value": 3.34}

Problem: Query (sequence): KNDTKILVLALEDLKDV [PRP8] ; field requested: protein stability index
Result: 1.73

Problem: Query (sequence): FQYGSRLPTFLKHKSIC [RPP1] ; field requested: protein stability index
Result: 1.87

Problem: Query (sequence): VTRFDEKQIEELLDNCI [SRB6] ; field requested: protein stability index
Result: 3.33

Problem: Query (sequence): GGLRPFGVSFIYAGYDD [PRE9] ; field requested: protein stability index
Result: 2.27

Problem: Query (sequence): TDLPIETAAMASLALAH [RPN1] ; field requested: protein stability index
Result: 1.43

Problem: Query (sequence): SKTVVTLSEPVQGELKP [FAS1] ; field requested: protein stability index
Result: 2.18

Problem: Query (sequence): QQQNASSKLYQMQQQQQ [GAL11] ; field requested: protein stability index
Result: 1.78

* * *

- experiment_description: protein stability index of a GFP-peptide fusion (yeast GPS) (PSI 1-4); higher = more stable; sorted into four equal gates, so the index is relative within each strain
- details: san1∆
measurement_label: protein stability index
Reply with just the number.

Reference set (3 entries):
{"sequence_record": "DQVLNLCLTEFENCYLE [FAS1]", "readout_value": 3.18}
{"sequence_record": "SLAILGMNLLSNLSQNV [SWI1]", "readout_value": 2.69}
{"sequence_record": "ADVHFLDCDGGFIDASC [RRP45]", "readout_value": 3.14}

Problem: Query (sequence): DVLHPNRANVSKDELRE [RPS24A] ; field requested: protein stability index
Result: 3.19

Problem: Query (sequence): IETIGHLITKEEIMHGL [RPN5] ; field requested: protein stability index
Result: 3.13

Problem: Query (sequence): PAFTFGAQKDNEKKTEE [YJL041W/NSP1] ; field requested: protein stability index
Result: 3.11

Problem: Query (sequence): LLTVTPGPRLLYENIAS [RPN10] ; field requested: protein stability index
Result: 1.95

Problem: Query (sequence): NVNSRNQLVEPNRIKLS [SRB5] ; field requested: protein stability index
Result: 2.48
